test system: HCT-116; experiment: Cytotoxicity against human HCT-116 cells assessed as reduction in cell viability incubated for 72 hrs by MTS assay; format: functional, cell-based; conditions: HCT-116, 72 h
ENDPOINT: IC50

Some entries whose results are on file:
CC1(C)CC[C@]23CC[C@]4(C)[C@H](CC[C@@H]5[C@@]6(C)CCC(=O)C(C)(C)[C@@H]6CC[C@]54C)[C@H]2[C@H]1OC3 :: > 50 µM
CC1(C)CC[C@]2(C(=O)O)CC[C@]3(C)C(=CC[C@@H]4[C@@]5(C)Cc6cccnc6C(C)(C)[C@@H]5CC[C@]43C)[C@@H]2C1 :: > 50 µM

### Prompt Entry `C[C@H]1[C@H](C)CC[C@]2(C(=O)O)CC[C@]3(C)C(=CC[C@@H]4[C@@]5(C)Cc6cccnc6C(C)(C)[C@@H]5CC[C@]43C)[C@H]12` : reported IC50 = ?
### Response > 50 µM

----------
system: U2OS; experiment: Cytotoxicity against human U2OS cells assessed as reduction in cell viability incubated for 72 hrs by MTS assay; type: functional, cell-based
ENDPOINT: IC50

Some entries whose results are on file:
CC1(C)C=C2[C@H]3CC[C@@H]4[C@@]5(C)Cc6cccnc6C(C)(C)[C@@H]5CC[C@@]4(C)[C@]3(C)CC[C@@]2(C(=O)O)CC1 :: > 50 µM
CC1(C)C=C2[C@H]3CC[C@@H]4[C@@]5(C)CCC(=O)C(C)(C)[C@@H]5CC[C@@]4(C)[C@]3(C)CC[C@@]2(C(=O)O)CC1 :: > 50 µM
CC1(C)C=C2[C@H]3CC[C@@H]4[C@@]5(C)Cc6nccnc6C(C)(C)[C@@H]5CC[C@@]4(C)[C@]3(C)CC[C@@]2(C(=O)O)CC1 :: > 50 µM

### Prompt Lab note: need IC50 for `CC1(C)CC[C@]23CC[C@]4(C)[C@H](CC[C@@H]5[C@@]6(C)Cc7nccnc7C(C)(C)[C@@H]6CC[C@]54C)[C@H]2[C@H]1OC3` on U2OS, anyone have it?
### Response > 50 µM

----------
Each entry below carries its recorded remaining at 1 h, 2 µM.
assay: Stability in human liver microsomes assessed as compound remaining at 2 uM measured at 60 mins in presence of NADPH by RF-MS analysis; type: ADME, Microsome; conditions: read-out: Stability
Respond with the bare value in %.

Some entries whose results are on file:
C=C(C=O)[C@@H]1CC[C@]2(C(=O)OCc3cn([C@H]4O[C@H](COC(C)=O)[C@@H](OC(C)=O)[C@H](OC(C)=O)[C@H]4OC(C)=O)nn3)CC[C@]3(C)[C@H](CC[C@@H]4[C@@]5(C)Cc6nccnc6C(C)(C)[C@@H]5CC[C@]43C)[C@@H]12 (stereo in doubt) :: 58.9
C=C(C=O)[C@@H]1CC[C@]2(C(=O)OCc3cn([C@H]4O[C@H](COC(C)=O)[C@@H](OC(C)=O)[C@H](OC(C)=O)[C@H]4OC(C)=O)nn3)CC[C@]3(C)[C@H](CC[C@@H]4[C@@]5(C)CC[C@H](O)C(C)(C)[C@@H]5CC[C@]43C)[C@@H]12 :: 66.6

Turning to the following compound.
### Prompt Entry `C=C(C)[C@@H]1CC[C@]2(C(=O)OCc3cn([C@H]4O[C@H](COC(C)=O)[C@@H](OC(C)=O)[C@H](OC(C)=O)[C@H]4OC(C)=O)nn3)CC[C@]3(C)[C@H](CC[C@@H]4[C@@]5(C)CC[C@H](O)C(C)(C)[C@@H]5CC[C@]43C)[C@@H]12` : reported remaining at 1 h, 2 µM = ?
### Response 97

The values you see were collected from ChEMBL document CHEMBL5352436.
